B1: HDAC6 (parent)
chain: DLMETTQYMNEGELRVLADTYDSV

# Variants of: B1
# assay overview: protein stability index of a GFP-peptide fusion (GPS, HEK-293T) (PSI 1-6); higher = more stable;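 also: lentivirally expressed fusions sorted by FACS into six bins by GFP to DsRed ratio, PSI derived from sequencing read proportions per bin multiplied by bin number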
# setup conditions: c terminus: a fixed tail appended
# protein stability index >= 3 gives true (1), anything below gives false (0)

Is it the case that DLMETTQYMNEGELRVLADTYDSQ has protein stability index reaching or exceeding 3? false (0)

Confirm if protein stability index reported for the variant DLMETTQYMNEGELRVLADTSDSV is 3 or above. false (0)

Record DLMETTQYMNEGELRRLADTYDSV ; criterion: protein stability index no lower than 3. Met? true (1)

Check this variant for protein stability index at or above 3: DLMETTQYMNEGELRVLADTYDSD false (0)

Test whether the variant DLMETTQYMNEGELRLLADTYDSV records protein stability index of 3 or higher. true (1)

# check: protein stability index of DLMETTQYMNEKELRVLADTYDSV is greater than or equal to 3 true (1)

I'd appreciate it if you could say whether DLMETTQYMNEGELPVLADTYDSV has protein stability index at least equal to 3. true (1)

Does the variant DLMETTQYMNEGELRVLSDTYDSV have recorded protein stability index that is 3 or more? false (0)

Reported protein stability index reaches at least 3 for DLMETTQYMNEGELRVLAGTYDSV ? false (0)

Check if protein stability index >= 3 (inclusive). Item: DLMETTQYMNEGEARVLADTYDSV false (0)

Is protein stability index at least 3? Consider DLMEMTQYMNEGELRVLADTYDSV false (0)

Is reported protein stability index greater than or equal to 3 here: DLMENTQYMNEGELRVLADTYDSV false (0)

Check if protein stability index >= 3 (inclusive). Item: DLMETTQYMNEGELRVLADTYDDV false (0)

Is reported protein stability index greater than or equal to 3 here: DLMETEQYMNEGELRVLADTYDSV false (0)

Is reported protein stability index greater than or equal to 3 here: DLMETTQYMNEGELRVLADTADSV false (0)

Given the entry DLMETTQYMNEGELRVLADTYTSV , answer whether its protein stability index meets or surpasses 3. false (0)

protein stability index >= 3 for DLMETTQYMNEGELRVHADTYDSV ? false (0)

Item DLMETTQYMNEGELRVLADTYLSV with protein stability index of 3 or above? false (0)

Evaluate DLMETTQYMNEGELRVAADTYDSV : protein stability index at minimum 3? false (0)

Is protein stability index for DLMETTQNMNEGELRVLADTYDSV at or above 3? true (1)

Assess whether reported protein stability index for DLMETTQYMNEGELRVLADTYDSR sits at 3 or higher. false (0)

Identify whether the reported protein stability index of the following variant is 3 or greater: DLMETTQYMNEGELRVLQDTYDSV false (0)

Reported protein stability index reaches at least 3 for DIMETTQYMNEGELRVLADTYDSV ? false (0)

Check if protein stability index >= 3 (inclusive). Item: DLMETTQYWNEGELRVLADTYDSV true (1)

Please tell me: is the variant DLYETTQYMNEGELRVLADTYDSV at or over 3 in terms of protein stability index? false (0)

Form field: protein stability index at least 3? Entry: DLPETTQYMNEGELRVLADTYDSV true (1)

hey, is protein stability index for this one >= 3? DLMGTTQYMNEGELRVLADTYDSV false (0)

Answer whether protein stability index of DLMETTQYMNYGELRVLADTYDSV is greater than or equal to 3. false (0)

Can DLMEKTQYMNEGELRVLADTYDSV be said to have protein stability index at or above 3? false (0)

Say whether DLMETTQYMNEGEDRVLADTYDSV shows protein stability index of 3 or more. false (0)

Please tell me: is the variant DLMETTQYMMEGELRVLADTYDSV at or over 3 in terms of protein stability index? true (1)

Determine whether measured protein stability index meets or exceeds 3 for DLMETTQYMNEGMLRVLADTYDSV false (0)

Item DLMETTQYMNEGELRVLCDTYDSV with protein stability index of 3 or above? false (0)

Would you say DLMETTQYHNEGELRVLADTYDSV shows protein stability index at minimum 3? true (1)

Could you verify whether the entry DLMETTQYMNEGELRVLADTHDSV shows protein stability index of no less than 3? false (0)
